METHOD DESCRIPTION: Apparent permeability from basolateral to apical side of human Caco-2 cells
Assay type: ADME, cell-based
OBSERVED PROPERTY: Papp B→A (×10⁻⁶ cm/s)

> print(dat)
                               query.smiles  observed.property  test.result
1  Cc1nc2ccc(NCc3cccc(C(F)(F)F)c3)cc2n(CCNC(=O)CO)c1=O           Papp B→A         48.2

---

METHOD DESCRIPTION: Metabolic stability in Sprague-Dawley rat liver microsome after 30 mins
Format: ADME
EXPERIMENTAL PARAMETERS: liver microsomes, read-out: Stability
OBSERVED PROPERTY: remaining at 0.5 h (%)

> print(dat)
                                   compound   observed.property  test.result
1  CC1Oc2ccc(NCc3ccc(Cl)c(Cl)c3)cc2N(CCNC(=O)CO)C1=O (racemic)  remaining at 0.5 h          1.5
2  COc1ccc(-c2nc3ccc(NCc4ccc(Cl)c(Cl)c4)cc3n(CCNC(C)=O)c2=O)cc1  remaining at 0.5 h           54
3  CC1(C)Oc2ccc(NCc3ccc(Cl)c(Cl)c3)cc2N(CCNC(=O)CO)C1=O  remaining at 0.5 h          9.6
4  Cc1nc2ccc(NCc3cccc(C(F)(F)F)c3)cc2n(CCNC(=O)CO)c1=O  remaining at 0.5 h           54
5  O=C(CO)NCCN1C(=O)COc2ccc(NCc3ccc(Cl)c(Cl)c3)cc21  remaining at 0.5 h           14
6  O=C(CO)NCCn1c(=O)c(C(F)(F)F)nc2ccc(NCc3cccc(C(F)(F)F)c3)cc21  remaining at 0.5 h           77
